- System: HFF cells
- experiment-summary: Cellular viability by CellTiter-Glo in the BK virus assays
- experimental-conditions: experiment 21-bk2-001; Secondary; HFF; CellTiter-Glo
metric-name: CC50

Ask: Can you look up the measured CC50 of `C=CC1=C(C)c2cc3[n-]c(cc4[n-]c(cc5nc(cc1n2)C(C)=C5C=C)c(C)c4CCC(=O)O)c(CCC(=O)O)c3C.[Sn+2]` for me?
Result: 95.8 µM

----------
- System: JC virus
- experiment-summary: JC virus qPCR antiviral assay in COS7 cells (primary/standard)
- Type: cell-based, 1-4 strain
- experimental-conditions: JC; Primary
metric-name: EC50 (µM)
Entry rule: numbers only, all in µM.

Ask: What does the data say about its EC50? Entry: `C=CC1=C(C)c2cc3[n-]c(cc4[n-]c(cc5nc(cc1n2)C(C)=C5C=C)c(C)c4CCC(=O)O)c(CCC(=O)O)c3C.[Sn+2]`
Result: 5.38
